- measurement description: Growth inhibition of human Jurkat T cells at 10 uM after 48 hrs by WST1 assay
- Assay type: cell-based
attribute measured: inhibition at 48 h, 10 µM (%)
Respond numerically; units are % and should not be typed.

Guide cases for inhibition at 48 h, 10 µM, answers given:
| entry smiles | inhibition at 48 h, 10 µM [%] |
| --- | --- |
| COc1ccc(-c2nc(SCCc3ccccc3)nc(N3CCOCC3)c2C#N)cc1 | 9 |
| COc1ccc(-c2nc(SC)nc(N3CCOCC3)c2C#N)cc1 | 6 |
| C=CCSc1nc(-c2ccc(OC)cc2)c(C#N)c(N2CCOCC2)n1 | 5 |
| CCCCSc1nc(-c2ccc(OC)cc2)c(C#N)c(N2CCOCC2)n1 | 13 |
| N#Cc1c(-c2ccc(Cl)cc2)nc(SCc2ccccc2)nc1N1CCC(C(N)=O)CC1 | 19 |

// next entry
Lookup: Need inhibition at 48 h, 10 µM of N#Cc1c(-c2cccc(Cl)c2)nc(SCc2ccccc2)nc1N1CCOCC1 , thanks.
Found: 15

###

- measurement description: Growth inhibition of human Jurkat T cells at 10 uM after 48 hrs by WST1 assay
- Type: cell-based
attribute measured: inhibition at 48 h, 10 µM (%)
Report as a plain number; the unit % is understood.

| entry smiles | inhibition at 48 h, 10 µM [%] |
| --- | --- |
| Cc1ccc(Nc2nc(-c3ccccc3)c(C#N)c(N3CCCCC3)n2)cc1 | 10 |

Lookup: Fill in: inhibition at 48 h, 10 µM of N#Cc1c(-c2ccc(Cl)cc2)nc(SCc2ccccc2)nc1N1CCC(C(=O)c2ccccc2)CC1 is ___
Found: 6

Lookup: Can you look up the measured inhibition at 48 h, 10 µM of COc1ccc(-c2nc(SCc3ccccc3)nc(N3CCC(C(N)=O)CC3)c2C#N)cc1 for me?
Found: 12

###

Recorded inhibition at 48 h, 10 µM values for a group of compounds are listed next.
- measurement description: Growth inhibition of human Jurkat T cells at 10 uM after 48 hrs by WST1 assay
- Assay type: cell-based
Just the number please, in %, no unit attached.

| entry smiles | data value |
| --- | --- |
| COc1ccc(-c2nc(SCc3ccccc3)nc(NCc3ccccc3)c2C#N)cc1 | 5 |
| COc1ccc(-c2nc(SCc3ccccc3)nc(N3CCOCC3)c2C#N)cc1 | 10 |
| N#Cc1c(-c2ccc(Cl)cc2)nc(SCc2ccccc2)nc1N1CCOCC1 | 5 |

Lookup: So what's the measured inhibition at 48 h, 10 µM for this one? N#Cc1c(-c2ccccc2)nc(Nc2ccc(Cl)cc2)nc1N1CCCCC1
Found: 9

Lookup: Given COc1ccc(-c2nc(SCc3ccccc3)nc(N3CCC(C(=O)c4ccccc4)CC3)c2C#N)cc1 , state its recorded inhibition at 48 h, 10 µM.
Found: 2

Lookup: So what's the measured inhibition at 48 h, 10 µM for this one? COc1ccc(-c2nc(SCc3ccccc3)nc(NCc3cccs3)c2C#N)cc1
Found: 13

Lookup: Entry N#Cc1c(NC2CCCCC2)nc(SCc2ccccc2)nc1-c1ccc(Cl)cc1 : reported inhibition at 48 h, 10 µM = ?
Found: 0

Lookup: # lookup: inhibition at 48 h, 10 µM of CCCCCCSc1nc(-c2ccc(OC)cc2)c(C#N)c(N2CCOCC2)n1
Found: 13
